Biological target: Human HER2 expressed on tumour cells (human, UniProt P04626 23-1255)
Experiment: cell-based or functional assay
outcome measure: % activity vs. DARPin # 41, BT474 cell proliferation (%)

binder="DARPin #36 (designed binder) MRGSHHHHHHGSDLGIKLLFAAAKGQDDEVRILLAAGADVNAKDFEGYTPLHVAAYDGHLEIVEVLLKAGADVNAKDSQGRTPLHEAAYSGHLEIVEVLLKAGADVNAQDDAGETPADLAAAWGHEDIAEVLQKLGGGGSGGGGSRSDLGAKLLVAATSGQDDEVRILLAAGADVNAKDRIGFTPLHRAAFVGHLEIVEVLLKAGADVNAQDDFGHTPADLAASLGHEDIAEVLQKLN" recorded_number=68.8
